- target.of.assay: Dihydrofolate reductase (Rattus norvegicus, UniProt Q920D2)
quantity.kind: IC50 (µM)

Look over these answered cases.
- smiles.text: "CCc1cc(Cc2cnc(N)nc2N)cc(CC)c1OCCCOc1ccccc1"
  quantity.kind: "IC50"
  test.value: 8.75
- smiles.text: "CC(C)c1cc(Cc2cnc(N)nc2N)cc(C(C)C)c1N"
  quantity.kind: "IC50"
  test.value: 34

[1] COc1cc(Cc2cnc(N)nc2N)ccc1N
[2] CCc1cc(Cc2cnc(N)nc2N)cc(C)c1N
Record comparison, field IC50: mark the lower of 1 and 2 . Use the label to indicate which entry you chose. 2

----------
- target.of.assay: Dihydrofolate reductase (Rattus norvegicus)
- Sequence (Q920D2 whole entry): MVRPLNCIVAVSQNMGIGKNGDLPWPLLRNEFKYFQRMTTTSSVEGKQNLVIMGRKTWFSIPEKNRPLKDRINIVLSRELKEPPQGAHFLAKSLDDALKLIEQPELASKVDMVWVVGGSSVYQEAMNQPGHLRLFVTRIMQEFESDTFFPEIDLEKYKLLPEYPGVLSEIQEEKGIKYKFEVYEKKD
pIC50: −log10 of the molar value.
quantity.kind: pIC50

- smiles.text: "CCCCOc1c(CCC)cc(Cc2cnc(N)nc2N)cc1CCC"
  pIC50: 4.82
- smiles.text: "CCCCCCCCCCCCOc1c(CC)cc(Cc2cnc(N)nc2N)cc1CC"
  pIC50: 4.19
- smiles.text: "Nc1ncc(Cc2cc(Cl)c(N)c(Cl)c2)c(N)n1"
  pIC50: 3.89
- smiles.text: "Cc1cc(Cc2cnc(N)nc2N)cc(C(C)(C)C)c1O"
  pIC50: 3.92
- smiles.text: "Cc1cc(Cc2cnc(N)nc2N)cc(C(C)(C)C)c1N"
  pIC50: 3.43
- smiles.text: "CCc1cc(Cc2cnc(N)nc2N)cc(CC)c1O"
  pIC50: 4.80
- smiles.text: "CCCc1cc(Cc2cnc(N)nc2N)cc(CC)c1O"
  pIC50: 5.35
- smiles.text: "COc1c(C)cc(Cc2cnc(N)nc2N)cc1C(C)(C)C"
  pIC50: 3.89

[A] CCc1cc(Cc2cnc(N)nc2N)cc(C)c1OC
[B] CCCc1cc(Cc2cnc(N)nc2N)cc(CCC)c1OC
Endpoint returns the identifier whose pIC50 is numerically larger, either A or B . Use the label to indicate which entry you chose. B
(B: 4.68, A: 4.08)

[a] CCc1cc(Cc2cnc(N)nc2N)cc(CC)c1OCCO
[b] CCc1cc(Cc2cnc(N)nc2N)cc(CC)c1OC
Endpoint returns the identifier whose pIC50 is numerically larger, either a or b . Use the label to indicate which entry you chose. b
(b: 4.24, a: 3.92)

----------
- target.of.assay: Bifunctional dihydrofolate reductase-thymidylate synthase (Plasmodium berghei str. ANKA, UniProt Q27713)
- Sequence (Q27713 whole entry): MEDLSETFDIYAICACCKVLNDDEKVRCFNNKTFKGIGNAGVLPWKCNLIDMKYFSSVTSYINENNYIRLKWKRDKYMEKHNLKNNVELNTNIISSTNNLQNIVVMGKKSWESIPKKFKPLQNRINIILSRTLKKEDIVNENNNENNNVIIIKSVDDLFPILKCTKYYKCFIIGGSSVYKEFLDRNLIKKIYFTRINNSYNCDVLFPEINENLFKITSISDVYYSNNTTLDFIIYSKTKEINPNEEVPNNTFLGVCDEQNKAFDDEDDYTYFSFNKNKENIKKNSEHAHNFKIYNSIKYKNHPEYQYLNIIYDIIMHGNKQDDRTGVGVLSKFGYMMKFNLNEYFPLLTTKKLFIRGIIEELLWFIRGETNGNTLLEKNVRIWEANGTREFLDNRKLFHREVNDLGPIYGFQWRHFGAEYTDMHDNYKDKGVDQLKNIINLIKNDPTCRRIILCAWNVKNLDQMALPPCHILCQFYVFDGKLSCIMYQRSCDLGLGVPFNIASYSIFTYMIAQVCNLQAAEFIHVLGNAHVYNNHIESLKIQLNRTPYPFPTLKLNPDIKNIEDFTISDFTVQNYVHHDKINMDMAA
- assay.summary: Inhibitory activity against dihydrofolate reductase (DHFR) of Plasmodium berghei
- run.parameters: read-out: I50
quantity.kind: IC50 (nM)

Look over these answered cases.
- compound: "CCCc1cc(Cc2cnc(N)nc2N)cc(CC)c1OC"
  result.unit: "nM"
  IC50: 10
- compound: "CCc1cc(Cc2cnc(N)nc2N)cc(C)c1OC"
  result.unit: "nM"
  IC50: 120
- compound: "CC(C)(C)c1cc(Cc2cnc(N)nc2N)cc(C(C)(C)C)c1O"
  result.unit: "nM"
  IC50: 140
- compound: "CCCCOc1c(CCC)cc(Cc2cnc(N)nc2N)cc1CCC"
  result.unit: "nM"
  IC50: 5.8
- compound: "CCCCC(CC)COc1c(CC)cc(Cc2cnc(N)nc2N)cc1CC (stereo unspecified)"
  result.unit: "nM"
  IC50: 42

[P] CCCc1cc(Cc2cnc(N)nc2N)cc(CC)c1O
[Q] COc1c(C)cc(Cc2cnc(N)nc2N)cc1C
Record comparison, field IC50: mark the lower of P and Q . Use the label to indicate which entry you chose. P
(P: 15 nM, Q: 120 nM)

[P] COc1c(C(C)C)cc(Cc2cnc(N)nc2N)cc1C(C)C
[Q] CCCCCCCCCCCCOc1c(CC)cc(Cc2cnc(N)nc2N)cc1CC
[R] CCOc1cc(Cc2cnc(N)nc2N)cc(OCC)c1OCC
[S] CCc1cc(Cc2cnc(N)nc2N)cc(CC)c1OC
[T] CCOc1c(CC)cc(Cc2cnc(N)nc2N)cc1CC
Provide the items ranked by increasing IC50. Please, when replying, give the labels in the order that was requested. R, S, P, T, Q

[a] COc1c(I)cc(Cc2cnc(N)nc2N)cc1I
[b] CCCc1cc(Cc2cnc(N)nc2N)cc(CCC)c1OC
[c] CCCc1cc(Cc2cnc(N)nc2N)cc(CCC)c1O
Provide the items ranked by increasing IC50. Please, when replying, give the labels in the order that was requested. c, b, a
(c: 5.7 nM, b: 20 nM, a: 31 nM)

[A] CCc1cc(Cc2cnc(N)nc2N)cc(CC)c1O
[B] COc1c(C(C)(C)C)cc(Cc2cnc(N)nc2N)cc1C(C)(C)C
Endpoint returns the identifier whose IC50 is numerically larger, either A or B . Use the label to indicate which entry you chose. A

[I] COc1c(C)cc(Cc2cnc(N)nc2N)cc1C(C)(C)C
[II] Nc1ncc(Cc2cc(I)c(O)c(I)c2)c(N)n1
[III] CCc1cc(Cc2cnc(N)nc2N)cc(CC)c1OCCCOc1ccccc1
[IV] CC(C)c1cc(Cc2cnc(N)nc2N)cc(C(C)C)c1O
Put the entries in order of IC50, starting with the largest number. Please, when replying, give the labels in the order that was requested. IV, I, II, III
(IV: 110 nM, I: 77 nM, II: 53 nM, III: 10 nM)
